test-name: Oral bioavailability in rat
Format: ADME, organism-based
conditions: in vivo
attribute-measured: bioavailability (%)
Report the value in % with no unit label.

The value of bioavailability measured for the compound CN(C)Cc1ccc(-c2cc3c(-c4cnn(C)c4)ccnc3[nH]2)cc1 turned out to be 72

* * *

log10(IC50) values for the compounds below.
tested-system: Aurora kinase A/Targeting protein for Xklp2 (Homo sapiens)
Sequence (O14965 whole entry): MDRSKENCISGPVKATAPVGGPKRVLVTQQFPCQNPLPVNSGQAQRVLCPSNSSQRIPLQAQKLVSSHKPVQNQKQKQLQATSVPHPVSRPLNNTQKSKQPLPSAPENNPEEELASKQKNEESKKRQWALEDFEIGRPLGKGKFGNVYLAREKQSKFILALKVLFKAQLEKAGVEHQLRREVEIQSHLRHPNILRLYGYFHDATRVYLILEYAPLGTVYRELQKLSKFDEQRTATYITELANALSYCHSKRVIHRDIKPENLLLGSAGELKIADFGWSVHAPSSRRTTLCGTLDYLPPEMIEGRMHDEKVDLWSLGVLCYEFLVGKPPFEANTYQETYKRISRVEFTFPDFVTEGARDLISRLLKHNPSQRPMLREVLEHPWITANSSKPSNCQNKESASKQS
Sequence (Q9ULW0 whole entry): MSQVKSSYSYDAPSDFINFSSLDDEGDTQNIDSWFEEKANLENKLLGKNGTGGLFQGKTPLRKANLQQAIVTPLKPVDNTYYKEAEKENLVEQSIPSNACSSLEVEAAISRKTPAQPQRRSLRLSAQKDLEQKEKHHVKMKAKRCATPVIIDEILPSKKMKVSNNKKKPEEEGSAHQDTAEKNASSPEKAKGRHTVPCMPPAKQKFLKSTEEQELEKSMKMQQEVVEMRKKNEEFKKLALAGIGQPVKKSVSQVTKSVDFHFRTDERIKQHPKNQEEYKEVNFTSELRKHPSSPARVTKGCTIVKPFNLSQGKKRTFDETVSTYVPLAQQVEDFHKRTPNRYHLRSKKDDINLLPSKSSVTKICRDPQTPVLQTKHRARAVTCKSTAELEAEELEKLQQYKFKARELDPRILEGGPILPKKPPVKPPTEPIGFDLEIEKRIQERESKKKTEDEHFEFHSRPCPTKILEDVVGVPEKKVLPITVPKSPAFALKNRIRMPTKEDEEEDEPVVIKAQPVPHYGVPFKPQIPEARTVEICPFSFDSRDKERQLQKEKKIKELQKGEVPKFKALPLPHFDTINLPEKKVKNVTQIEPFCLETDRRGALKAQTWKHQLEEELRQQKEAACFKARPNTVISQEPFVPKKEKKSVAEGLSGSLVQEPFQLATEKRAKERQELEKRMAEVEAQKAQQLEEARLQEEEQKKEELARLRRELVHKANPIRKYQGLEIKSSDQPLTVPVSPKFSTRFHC
test-name: Inhibition of human recombinant aurora A/TPX2 complex after 120 mins by IMAP fluorescence polarization assay
Each number you see is log10 of IC50, and the unit inside the log is nM.

Recorded log10(IC50), per entry:
compound_structure_string=c1cc(-c2cn[nH]c2)c2cc[nH]c2n1 assay_result=2.77
compound_structure_string=CN(C)Cc1ccc(-c2cc3c(-c4cnn(C)c4)ccnc3[nH]2)cc1 assay_result=1.88
compound_structure_string=CN(C)Cc1cccc(-c2cc3c(-c4cnn(C)c4)ccnc3[nH]2)c1 assay_result=2.11
compound_structure_string=CN(C)Cc1cccc(-c2cc3c(-c4cnn(C)c4)c(Cl)cnc3[nH]2)c1 assay_result=0.79
compound_structure_string=Cn1cc(-c2ccnc3[nH]ccc23)cn1 assay_result=2.99

The value of log10(IC50) measured for the compound CN(C)Cc1ccc(-c2cc3c(-c4cnn(C)c4)c(Cl)cnc3[nH]2)cc1 turned out to be 0.90
